B1: FBF1 (parent)
chain: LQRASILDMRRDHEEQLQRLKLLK

# Variants of: B1
# PROTOCOL_NOTES: protein stability index of a GFP-peptide fusion (GPS, HEK-293T) (PSI 1-6); higher = more stable;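 also: lentivirally expressed fusions sorted by FACS into six bins by GFP to DsRed ratio, PSI derived from sequencing read proportions per bin multiplied by bin number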
# CONDITION_CONTEXT: c terminus: a fixed tail appended

VARIANT_IDENTIFIER	protein stability index
K21N	3.57
R10A	3.36
M9H	3.49
Q18N	3.6
A4M	3.19
Q18W	2.45
E14C	2.79
K24I	2.28
D8G	2.76
D12I	3.2
K24P	3.55
K21C	2.65
L1I	4.12
I6E	3.98
L7G	4.1
I6A	4.03
E14R	2.98
D12K	3.15
R19Y	2.72
R10C	2.8
